Cited source: paper PMC7182039

Record form. Attribute: sol6.5. Fill in for each entry.
experiment: Kinetic solubility by nephelometry; type: physicochemical; settings: kinetic solubility, pH 6.5 phosphate buffer, 1% DMSO, 30 min

Field request: sol6.5 | item: O=C(O)COc1ccc([C@H]2CC[C@]3(CC2)OOC2(O3)C3CC4CC(C3)CC2C4)cc1 (stereo partly shown) [Compound 2]
6.3 to 12.5 µg/mL

Reported sol6.5 for O=C([O-])C1CCN(CCOc2ccc([C@H]3CC[C@]4(CC3)OOC3(O4)C4CC5CC(C4)CC3C5)cc2)CC1.[Na+] (stereo partly shown) [Compound 15] : what is it?
< 1.6 µg/mL

Name the reported sol6.5 value associated with the compound CS(=O)(=O)O.O=C(O)COc1ccc([C@H]2CC[C@]3(CC2)OOC2(O3)C3CC4CC2CC(C3)N4)cc1 (stereo partly shown) [Compound 24]
< 1.6 µg/mL

Endpoint output: sol6.5 of O=C(O)COc1ccc([C@H]2CC[C@]3(CC2)OOC2(O3)C3CC4CC2CC(C3)C4(F)F)cc1 (stereo partly shown) [Compound 19] . Value?
12.5 to 25 µg/mL

Which sol6.5 value is on record for CC(C)(Oc1ccc([C@H]2CC[C@]3(CC2)OOC2(O3)C3CC4CC(C3)CC2C4)cc1)C(=O)O (stereo partly shown) [Compound 11] ?
3.1 to 6.3 µg/mL

Name the reported sol6.5 value associated with the compound CS(=O)(=O)O.O=C(O)C1CN(Cc2ccc([C@H]3CC[C@]4(CC3)OOC3(O4)C4CC5CC(C4)CC3C5)cc2)C1 (stereo partly shown) [Compound 18]
< 1.6 µg/mL

Look up sol6.5 for this compound: O=C(O)c1cccc([C@H]2CC[C@]3(CC2)OOC2(O3)C3CC4CC(C3)CC2C4)c1 (stereo partly shown) [Compound 4]
<1.6/<1.6 μg/mL
